Test system: TTR
Assay: TTR editing in primary human hepatocytes electroporated with Spy Cas9 protein loaded with dgRNAs (Table 7)
Format: cell-based
Conditions: dgRNA electroporated with Spy Cas9 protein (RNP)
Property: Avg % Edit; scope: individual sequences
Respond with the bare value in %.

# count of solved cases: 2
# biopolymer_sequence, reading_unit, Avg % Edit
data = [
    ("AAAGUUCUAGAUGCUGUCCG (tested as dual guide RNA, chemistry not given here) [CR003346]", "%", 35.67),
    ("AGUGAGUCUGGAGAGCUGCA (tested as dual guide RNA, chemistry not given here) [CR003359]", "%", 63.77),
]

Data request: Please tell me: Avg % Edit of UCCACUCAUUCUUGGCAGGA (tested as dual guide RNA, chemistry not given here) [CR005298] , system TTR?
Data returned: 39.90

Data request: Please tell me: Avg % Edit of AGUCCCUCAUUCCUUGGGAU (tested as dual guide RNA, chemistry not given here) [CR003392] , system TTR?
Data returned: 4.13

Data request: Please tell me: Avg % Edit of AAUGGUGUAGCGGCGGGGGC (tested as dual guide RNA, chemistry not given here) [CR003375] , system TTR?
Data returned: 1.33

Data request: Please tell me: Avg % Edit of UUCUUUGGCAACUUACCCAG (tested as dual guide RNA, chemistry not given here) [CR003357] , system TTR?
Data returned: 36.23

Data request: Please tell me: Avg % Edit of AAAGGCUGCUGAUGACACCU (tested as dual guide RNA, chemistry not given here) [CR003353] , system TTR?
Data returned: 84.83

Data request: Please tell me: Avg % Edit of UGUCUGUCUUCUCUCAUAGG (tested as dual guide RNA, chemistry not given here) [CR005307] , system TTR?
Data returned: 8.17

Data request: Please tell me: Avg % Edit of GACGACAGCCGUGGUGGAAU (tested as dual guide RNA, chemistry not given here) [CR003388] , system TTR?
Data returned: 5.70

Data request: Please tell me: Avg % Edit of GCCGUGGUGGAAUAGGAGUA (tested as dual guide RNA, chemistry not given here) [CR003387] , system TTR?
Data returned: 1.87
